Test system: ATP;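 further: ATP exposure 15 min at 22 °C before imaging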
METHOD NOTES: switch fluorescence ratio, 500 uM ATP over buffer (Cy3 cluster intensity, sum of 5 cycles each) (fold (ratio)); higher = stronger signal-on switching upon ATP binding; sequences stand for … in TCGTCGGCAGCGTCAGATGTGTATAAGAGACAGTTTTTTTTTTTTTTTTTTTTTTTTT…TC
DETAILS: aptamer strand: ATP DNA aptamer (quencher-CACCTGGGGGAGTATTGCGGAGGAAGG + anchor), 100 nM annealed; ATP concentration: 500 uM
TEST READOUT: switch fluorescence ratio
One number for each entry.

# example entries with known answers
>  <CHAIN>
TTCTGAGGTG

>  <TEST READOUT>
switch fluorescence ratio

>  <READOUT NUMBER>
1.07

$$$$
>  <CHAIN>
ACCCTAGGGT

>  <TEST READOUT>
switch fluorescence ratio

>  <READOUT NUMBER>
0.994

$$$$
>  <CHAIN>
CGAGCATTTA

>  <TEST READOUT>
switch fluorescence ratio

>  <READOUT NUMBER>
1.33

$$$$
>  <CHAIN>
CATATGACGG

>  <TEST READOUT>
switch fluorescence ratio

>  <READOUT NUMBER>
0.986

$$$$
>  <CHAIN>
ATTCAATTTT

>  <TEST READOUT>
switch fluorescence ratio

>  <READOUT NUMBER>
0.996

$$$$

Could you tell me switch fluorescence ratio for each of these sequences? They are listed below.
1. TTGCATGGAA
2. TTTTGGGTTT
3. CCCTGGACGA
4. TTTGGGTAGT
5. ACGTTGGGGG
6. GAATCGGGGA
7. AAGTGTATGG

Result:
1: 1.01; 2: 1.02; 3: 1.07; 4: 1.04; 5: 1.01; 6: 1.01; 7: 0.997

For every record below, what is its switch fluorescence ratio?
1. TAAGCAGACG
2. CTATTACGG
3. TGTTTTAGGA
4. ATCATGACTG
5. GAGTCTTTTA
6. CAAAGCATCT

Result:
0.969
1.04
0.993
1.02
0.959
1.09

Parameter requested: switch fluorescence ratio. Apply to each item below.
1. GGATCTTGGC
2. TCGTTTTTGG
3. CCCGCTAAGG
4. AATCATAGGG
5. AGGGATCGG
6. TGAAAAGAGG
7. GACTCAGGGG
8. TTTGCTATAT

Result:
1. 1.02
2. 1
3. 1.19
4. 1.01
5. 1
6. 0.988
7. 1.39
8. 1.18

Lab note: each sequence below needs its switch fluorescence ratio filled in.
1. CATGCTGGGT
2. GACAATAGGC
3. TGTCACAGTT
4. CATGATGAGC
5. GATGGATTAG
6. CGATGATATT
7. ATTTAGGTTT

Result:
1. 1.04
2. 1.1
3. 1.01
4. 0.967
5. 0.982
6. 1.02
7. 1.01

// for each sequence below, give its switch fluorescence ratio
1. TAGGTGCATA
2. ATTTCAGTAA
3. CGGCTGGTCA
4. ATATGGATGG
5. TGATTATAGG
6. CTGAAGTTGT
7. CCTATTAAAC
8. AGCAGGGGCT

Result:
1. 1.03
2. 1.05
3. 0.984
4. 0.986
5. 0.992
6. 1.01
7. 1.04
8. 1.02

List switch fluorescence ratio for every entry below, keeping the order given.
1. ACCGGATATA
2. TGACCCTATA
3. AGTTCTAGGT
4. GGACTTTTGT
5. TTCATTAGCT

Result:
[1.01, 1.06, 0.986, 0.984, 1]

Take each entry in turn and give its switch fluorescence ratio.
1. TTAAAGCTGG
2. GTGGGGCAAA
3. TATATAGAGC
4. CGAAATCGGG
5. GAAAGGCGAG

Result:
0.978
1
1.02
1.02
1.11

For each of the items listed, what is its switch fluorescence ratio?
1. AAATTTTTGT
2. AGTAGTGGGT
3. TATGAAGCCG
4. AGTGGGTTTT
5. TTGCGTGTTG
6. TTAAGACTTC
7. CAAAATATGG
8. GGTTGATGAT

Result:
1
1.02
1.06
0.988
1.01
1.02
0.984
0.975
